B1: glmS ribozyme (parent)
chain: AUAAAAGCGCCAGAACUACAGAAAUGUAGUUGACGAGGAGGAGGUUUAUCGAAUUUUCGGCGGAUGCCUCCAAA

Variants of: B1
TEST METHOD NOTES: KM; higher = weaker cofactor use; RNA array
RUN PARAMETERS: with glucosamine-6-phosphate
# KM per entry
The response must be a number in µM with no trailing unit.

Below: 3 variants and their reported KM.
G37C U45A = 5840
U45G C71U = 2380
G43A U45G C58G = 199

Attention now shifts to the item below.
Please give the measured KM for this variant: A12G C70G
856
